# system_tested: UniProt O00748
# Sequence (O00748 whole entry): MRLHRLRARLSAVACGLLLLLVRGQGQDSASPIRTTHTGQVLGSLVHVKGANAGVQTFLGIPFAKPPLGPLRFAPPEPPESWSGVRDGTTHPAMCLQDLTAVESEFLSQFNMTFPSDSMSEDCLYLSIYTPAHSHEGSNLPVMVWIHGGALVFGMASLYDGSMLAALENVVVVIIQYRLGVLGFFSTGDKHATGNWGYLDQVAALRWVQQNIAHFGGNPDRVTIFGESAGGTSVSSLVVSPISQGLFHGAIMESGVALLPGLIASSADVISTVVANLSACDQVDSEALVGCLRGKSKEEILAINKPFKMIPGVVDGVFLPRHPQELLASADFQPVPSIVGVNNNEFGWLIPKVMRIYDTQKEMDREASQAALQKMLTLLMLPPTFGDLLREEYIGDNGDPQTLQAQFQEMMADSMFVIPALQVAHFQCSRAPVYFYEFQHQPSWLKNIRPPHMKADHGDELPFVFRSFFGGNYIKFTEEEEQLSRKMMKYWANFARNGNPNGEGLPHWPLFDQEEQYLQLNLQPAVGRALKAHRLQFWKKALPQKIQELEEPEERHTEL
# assay_comment: Inhibition of human intestinal CES2 expressed in U373MG cells assessed as 7-ethyl-10-hydroxycamptothecin formation at 5 uM using irinotecan as substrate preincubated for 1 hr followed by substrate addition measured after 5 mins by HPLC method relative to control
# Assay type: cell-based
# Parameters: scale not given: the % may be the effect or the level left
# stated_conditions: U373MG cells expressing human intestinal CES2, probe irinotecan, read-out: Activity
measured_quantity: activity at 5 min, 5 µM (%)
Numbers only, in %.

structure_as_smiles	activity at 5 min, 5 µM [%]
CN(C1=CC(=O)C(=O)c2ccccc21)c1ccc(F)cc1	92
Cc1ccc(N(C)C2=CC(=O)C(=O)c3ccccc32)cc1	93

Next item in the queue.
# input compound: CN(C1=CC(=O)C(=O)c2ccccc21)c1ccccc1 ; wanted: its activity at 5 min, 5 µM
77

Data origin, for the record: ChEMBL document CHEMBL3997797
